Biological target: B1R receptor of the rat (CHO K1 cells stably transfected with the B1R gene of the rat) (Rattus norvegicus)
Construct: expressed in transfected cells; host or cells: CHO K1 cells (Chinese hamster ovary), stably transfected
Assay: Functional study on the bradykinin receptor 1 (B1R), Ca2+ fluorescence (Fluo-4) FLIPR/Novostar assay, rB1R cells
Type: cell-based
Conditions: CHO-K1, 10 μM, read-out: % Inhibition (r-B1R) at 10 μM
measured-attribute: inhibition at 10 µM (%)

Example cases with answers are listed next.
Cc1ccc(F)c(C(=O)NC2CC(C)(C)c3ccc(C(=O)N(C)C4CCN(c5ccncc5)CC4)cc32)c1Cl (stereo not drawn): 110
Cc1ccc(F)c(C(=O)N(C)C2CCc3ccc(C(=O)N(C)C4CCN(c5ccncc5)CC4)cc32)c1Cl (stereo not drawn): 112
CN(C(=O)c1ccc2c(c1)C(N(C)C(=O)c1cnccc1C(F)(F)F)CC2)C1CCN(c2ccncc2)CC1 (stereo not drawn): 105
Cc1cc(N2CCC(N(C)C(=O)c3ccc4c(c3)C(NC(=O)c3cc(Cl)ccc3Cl)CC4)CC2)cc(C)n1 (stereo not drawn): 112
CN(C(=O)c1ccc2c(c1)C(N(C)C(=O)Nc1c(Cl)cccc1Cl)CC2)C1CCN(c2ccncc2)CC1 (stereo not drawn): 86
Cc1cc(N2CCC(N(C)C(=O)c3ccc4c(c3)C(N(C)C(=O)N(C)c3ccc(Cl)cc3Cl)CC4)CC2)cc(C)n1 (stereo not drawn): 108

(I) CN(C(=O)c1ccc2c(c1)C(NC(=O)C1CC1)CCO2)C1CCN(c2ccncc2)CC1 (stereo not drawn)
(II) CN(C(=O)c1ccc2c(c1)CCC2NC(=O)CCC1CCCC1)C1CCN(c2ccncc2)CC1 (stereo not drawn)
Larger number for inhibition at 10 µM: I , or II ? Lab note: record the label of whichever item you select.
I

(A) CN(C(=O)NC1CCc2ccc(C(=O)N(C)C3CCN(c4ccc5cnccc5c4)CC3)cc21)c1ccc(Cl)cc1Cl (stereo not drawn)
(B) CN(C(=O)c1ccc2c(c1)C(NC(=O)c1cc(C(F)(F)F)ccc1Cl)CC2)C1CCN(c2ccc3cnccc3c2)CC1 (stereo not drawn)
Larger number for inhibition at 10 µM: A , or B ? Lab note: record the label of whichever item you select.
B
(B: 110%, A: 77%)

----------
Biological target: B1R receptor of the rat (CHO K1 cells stably transfected with the B1R gene of the rat) (Rattus norvegicus)
Construct: expressed in transfected cells; host or cells: CHO K1 cells (Chinese hamster ovary), stably transfected
Sequence (P97583 1-337): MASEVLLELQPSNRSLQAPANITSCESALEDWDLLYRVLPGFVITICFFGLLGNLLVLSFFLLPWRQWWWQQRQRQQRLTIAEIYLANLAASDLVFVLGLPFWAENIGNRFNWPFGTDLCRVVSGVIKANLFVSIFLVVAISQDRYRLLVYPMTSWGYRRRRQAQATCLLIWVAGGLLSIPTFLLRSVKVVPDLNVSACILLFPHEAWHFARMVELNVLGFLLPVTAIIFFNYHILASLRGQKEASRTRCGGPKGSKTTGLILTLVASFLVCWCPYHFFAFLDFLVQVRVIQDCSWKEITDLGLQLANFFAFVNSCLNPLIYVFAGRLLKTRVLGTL
Test: Functional study on the bradykinin receptor 1 (B1R), Ca2+ fluorescence (Fluo-4) FLIPR/Novostar assay, rB1R cells
Type: cell-based
Conditions: CHO-K1, 10 μM, read-out: % inhibition (rat B1R) at 10 μM
measured-attribute: inhibition at 10 µM (%)

Example cases with answers are listed next.
CN(C(=O)c1ccc2c(c1)[C@H](NC(=O)c1ccccc1Cl)CC2)C1CCN(c2ccc(Cl)cc2)CC1 [Example H-54]: 93
CC(C)N(C(=O)c1ccccc1Cl)[C@@H]1CCc2cc(C(=O)N(C)C3CCN(c4ccncc4)CC3)c(F)cc21 [Example H-158]: 61
Cc1cc(N2CCC(N(C)C(=O)c3ccc4c(c3)[C@H](NC(=O)c3cc(C)on3)CC4)CC2)nc(C)n1 [Example H-96]: 104
CN(C(=O)c1ccc2c(c1)[C@H](NC(=O)C1CCOCC1)CC2)C1CCN(c2ccncc2)CC1 [Example H-76]: 107
Cc1cc(N2CCC(CCNC(=O)c3ccc4c(c3)[C@H](NC(=O)c3ccccc3Cl)CC4)CC2)ccn1 [Example H-56]: 102
CN(C(=O)c1ccc2c(c1)CC[C@H]2NC(=O)c1ccccc1Cl)C1CCN(c2ccncc2)CC1 [Example H-17]: 77
Cc1cc(N2CCC(N(C)C(=O)c3ccc4c(c3)[C@H](NC(=O)c3cc(F)ccc3Cl)CC4)CC2)nc(C)n1 [Example H-133]: 100
CN(C)c1nccc(N2CCC(N(C)C(=O)c3ccc4c(c3)[C@H](N(C)C(=O)CCC3CCCC3)CC4)CC2)n1 [Example H-186]: 103

(1) CN(C(=O)c1ccc2c(c1)CC[C@H]2N1Cc2cccc(Cl)c2C1=O)C1CCN(CCc2ccncc2)CC1 [Example H-43]
(2) Cc1cc(N2CCC(N(C)C(=O)c3ccc4c(c3)[C@H](NC(=O)c3c(F)cccc3Cl)CC4)CC2)nc(C)n1 [Example H-163]
(3) CN(C(=O)c1ccc2c(c1)CC[C@H]2N1Cc2cccc(Cl)c2C1=O)C1CCN(Cc2ccncc2)CC1 [Example H-27]
Order each entry by recorded inhibition at 10 µM, climbing from the minimum. Give your ranking as a list of the labels in the requested order.
3, 1, 2
(3: 11%, 1: 51%, 2: 104%)

The values you see were collected from patent US8680159B2.
